Every entry's value here was drawn from PubChem BioAssay AID1159580.

Test: chemical genetic growth profiling, strain panel (AID 1159580);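 further: tested at 20 µM; growth read once vehicle control cultures reached saturation at 30 °C; 1 = growth at the plate median or of vehicle wells; lower values mean less growth of the strain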
Settings: S. cerevisiae deletion strains, growth OD, locus YGL173C, strain kem1, stronger effect = lower value
Among all 5,500 compounds or so, about 2,000 (36%) were called active. Not shown: some 18% with an inconclusive outcome. The list shows a part of the results.
reported.endpoint: normalized growth
Give the figure only, with no unit attached.

[[record]]
molecule = "CC(CC(=O)C(O)C(C)(C)O)C1C(=O)CC2(C)C3=CCC4C(C)(C)C(OC5OCC(O)C(O)C5O)CCC45CC35C(O)CC12C (stereo not drawn)"
result = 1.03

[[record]]
molecule = "Nc1c2c(nc3ccccc13)CCCC2O (stereo not drawn)"
result = 1.01

[[record]]
molecule = "Nc1ccc(S(=O)(=O)c2ccc(N)cc2)cc1"
result = 0.979

[[record]]
molecule = "C[C@@H]1OC(O[C@H]2C(O[C@H]3CC[C@@]4(C)C(CC[C@]5(C)C4CC=C4C6CC(C)(C)CC[C@]6(C(=O)O)CC[C@]45C)[C@]3(C)CO)OC[C@H](O)[C@@H]2O)[C@H](O)[C@H](O)[C@H]1O (stereo partly drawn)"
result = 0.0643

[[record]]
molecule = "COc1ccc2c3c([nH]c2c1)C(C)=NCC3"
result = 0.984

[[record]]
molecule = "CO[C@@]12[C@@H]3NC3CN1C1=C(C(=O)C(N)=C(C)C1=O)[C@@H]2COC(N)=O (stereo partly drawn)"
result = 0.981

[[record]]
molecule = "CC1(C)CC[C@@]2(C(=O)O)C(C1)C1=CCC3[C@@]4(C)CC[C@H](O)C(C)(C)C4CC[C@@]3(C)[C@]1(C)C[C@@H]2O (stereo partly drawn)"
result = 1.01

[[record]]
molecule = "CCOc1ccc2nc3cc(N)ccc3c(N)c2c1"
result = 0.677


Quick note, normalized growth for O=c1ccc2ccc(O)cc2o1 landed at 0.988

Quick note, normalized growth for O=c1[nH]cc(F)c(=O)[nH]1 landed at 0.719

Quick note, normalized growth for C/C=C(/C)C(=O)O[C@@H]1[C@H](OC(C)=O)[C@@]2(CO)C(CC1(C)C)C1=CCC3[C@@]4(C)CC[C@H](O[C@@H]5O[C@H](C(=O)O)[C@@H](O[C@@H]6O[C@H](CO)[C@@H](O)[C@H](O)[C@H]6O)[C@H](O)[C@H]5O[C@@H]5O[C@H](CO)[C@@H](O)[C@H](O)[C@H]5O)[C@](C)(CO)C4CC[C@@]3(C)[C@]1(C)C[C@H]2O (stereo partly drawn) landed at 0.966

Quick note, normalized growth for CCCCCCCCCCCC[C@H](C(=O)O)[C@@H](C)C(=O)O landed at 0.958

Quick note, normalized growth for Nc1c2c(nc3ccccc13)CCCC2 landed at 0.958

Quick note, normalized growth for C#C[C@]1(O)CCC2C3CCC4=CC(=O)CC[C@@H]4C3CC[C@@]21CC (stereo partly drawn) landed at 0.979
